# PROTOCOL_NOTES: J774-Dual cytotoxicity
# Assay type: cell-based, mouse
# CONDITION_PARAMETERS: mouse, J774-Dual cells, Mouse Reporter Cell Line; read-out: J774 cytotox CC50
PROPERTY_LABEL: CC50

Recorded CC50, per entry:
Incoming: Fill blank: measured CC50 of the compound O=C(Nc1ccc(N2CCN(C(=O)c3cccs3)CC2)cc1)c1ccc(OCc2ccc(F)c(F)c2F)cc1 is ____.
Outgoing: 22.1 µM

Incoming: Entry Cc1c(Br)ccc(C(=O)Nc2ccc(N3CCN(C(=O)c4cccs4)CC3)cc2)c1C : reported CC50 = ?
Outgoing: > 25 µM

Incoming: So what does the record say about CC50 for O=C(Nc1ccc(N2CCN(C(=O)c3cccs3)CC2)cc1)c1ccc(-c2ccccc2)cn1 ?
Outgoing: > 25 µM

Incoming: Need CC50 of COC(=O)COc1cccc(NC(=O)c2cccc(NC(=O)c3cccs3)c2)c1 , thanks.
Outgoing: > 25 µM

Incoming: Please report the recorded CC50 for COC(=O)c1ccc(N2CCN(C(=O)c3cccs3)CC2)cc1 .
Outgoing: > 25 µM

Incoming: Need CC50 of O=C(Nc1ccc(N2CCN(C(=O)c3cccs3)CC2)cc1)c1ccc2c(c1)OCCO2 , thanks.
Outgoing: > 25 µM

New cases:
Incoming: // returns reported CC50 for input O=C(c1ccco1)N1CCN(c2ccccc2)CC1
Outgoing: > 25 µM

Incoming: Need CC50 of CC(C)c1ccc(C(=O)Nc2ccc(N3CCN(C(=O)c4ccco4)CC3)cc2)cc1 , thanks.
Outgoing: > 25 µM

Incoming: // query CC50 value for entry O=C(c1cccs1)N1CCN(Cc2cn(Cc3ccc(Cl)cc3)nn2)CC1
Outgoing: > 25 µM

Incoming: Tell me the measured CC50 of O=C(Nc1ccc(N2CCN(C(=O)c3cccs3)CC2)cc1)c1ccc(N2CCCCC2)c([N+](=O)[O-])c1 , please.
Outgoing: > 10 µM

Incoming: Recorded CC50 of O=C(Nc1ccc(N2CCN(C(=O)c3cccs3)CC2)cc1)c1ccc2cc(Br)ccc2c1 , please.
Outgoing: > 25 µM

Incoming: What CC50 value was documented for this compound, Cc1ccccc1C(=O)N1CCN(c2ccc(NC(=O)c3ccc(OCc4ccccc4)cc3)cc2)CC1 ?
Outgoing: > 25 µM

Incoming: # query: CC50 of entry O=C(Nc1ccc(N2CCN(C(=O)c3cccs3)CC2)cc1)c1ccc(-c2ccccc2)cc1
Outgoing: > 25 µM

Incoming: I'd like to know its CC50. The compound in question is O=C(Nc1ccc(N2CCN(C(=O)c3ccco3)CC2)cc1)c1ccccc1F
Outgoing: > 25 µM

Incoming: Give the measured CC50 of Cc1ccc(Cn2cc(CN3CCN(C(=O)c4cccs4)CC3)nn2)cc1 .
Outgoing: > 25 µM

Incoming: Could you share which CC50 value was measured for O=C(Nc1ccc(N2CCN(C(=O)c3cccs3)CC2)cc1)c1ccc(-c2cc3ccccc3oc2=O)cc1 ?
Outgoing: 67.2 µM

###

# PROTOCOL_NOTES: THP1-Dual cytotoxicity (Cell Titer Glo, ATP)
# Assay type: cell-based, human
# CONDITION_PARAMETERS: human, THP1-Dual cells, Human Reporter Cell Line; read-out: Thp1 cytotox CC50
Listed here: items and their measured CC50.

A selection of reference data follows.
Incoming: Need CC50 of O=C(Nc1ccc(N2CCN(C(=O)c3cccs3)CC2)cc1)c1ccc2c(c1)OCCO2 [NA-28] , thanks.
Outgoing: > 25 µM

Incoming: If you can, please state the reported CC50 value of COc1c(C)cc(Br)cc1C(=O)Nc1ccc(N2CCN(C(=O)c3cccs3)CC2)cc1 [NA-31] .
Outgoing: > 25 µM

Incoming: For the compound O=C(Nc1ccc(N2CCN(C(=O)c3cccs3)CC2)cc1)c1ccc(OCc2ccccc2)cn1 [NA-60] , what CC50 is on record?
Outgoing: 23 µM

Incoming: Looking for the measured CC50 of O=C(Nc1ccc(N2CCN(C(=O)c3ccco3)CC2)cc1)c1ccccc1F [NA-3] , can you help?
Outgoing: > 25 µM

Incoming: Item O=C(Nc1ccc(N2CCN(C(=O)c3cccs3)CC2)cc1)c1ccc(Br)c2ncccc12 [NA-18] has what recorded CC50?
Outgoing: > 25 µM

Others:
Incoming: Field request: CC50 | item: O=C(Nc1ccc(N2CCN(C(=O)c3cccc(Cl)c3)CC2)cc1)c1ccc(OCc2ccccc2)cc1 [NA-48]
Outgoing: > 25 µM

Incoming: Please report the recorded CC50 for O=C(c1cccs1)N1CCN(c2ccc(NS(=O)(=O)c3ccc(-c4ccccc4)cc3)cc2)CC1 [NA-69] .
Outgoing: > 10 µM

Incoming: // CC50 lookup, key: O=C(Nc1ccc(N2CCN(C(=O)c3cccs3)CC2)cc1)c1ccccc1Br [NA-67]
Outgoing: > 10 µM

Incoming: If you can, please state the reported CC50 value of O=C(Nc1ccc(N2CCN(C(=O)c3cccs3)CC2)cc1)c1cccc2ccccc12 [NA-11] .
Outgoing: > 25 µM

Incoming: Request the reported CC50 associated with O=C(c1ccco1)N1CCN(c2ccccc2)CC1 [NA-5]
Outgoing: > 25 µM

Incoming: Find the recorded CC50 belonging to Cc1ccc(Cn2cc(CN3CCN(C(=O)c4cccs4)CC3)nn2)cc1 [NA-55] and report it.
Outgoing: > 25 µM

Incoming: Please report the recorded CC50 for O=C(Nc1ccc(N2CCN(C(=O)c3cccs3)CC2)cc1)c1ccc(Oc2ccccc2)cc1 [NA-26] .
Outgoing: > 25 µM

###

# PROTOCOL_NOTES: J774-Dual cytotoxicity
# Type: cell-based, mouse
# CONDITION_PARAMETERS: mouse, J774-Dual cells, Mouse Reporter Cell Line; read-out: J774 cytotox CC50
PROPERTY_LABEL: CC50

// worked examples, CC50 included
Incoming: Data request, read-out CC50, for CCOc1cccc(COc2ccc(C(=O)Nc3ccc(N4CCN(C(=O)c5cccs5)CC4)cc3)cc2)c1
Outgoing: 37.2 µM

Incoming: Reported CC50, compound O=C(Nc1ccc(N2CCN(C(=O)c3cccs3)CC2)cc1)c1ccc(Oc2ccccc2)cc1 : ____
Outgoing: > 25 µM

Incoming: What CC50 value was documented for this compound, O=C(Nc1ccc(N2CCN(C(=O)c3cccs3)CC2)cc1)c1ccc(Br)o1 ?
Outgoing: > 25 µM

Incoming: CC50 lookup needed for O=C(Nc1ccc(N2CCN(C(=O)c3ccc(Cl)cc3)CC2)cc1)c1ccc(OCc2ccccc2)cc1 , thanks.
Outgoing: > 25 µM

Incoming: Looking for the measured CC50 of O=C(Nc1ccc(N2CCN(C(=O)c3cccs3)CC2)cc1)c1ccc(OCc2ccccc2)nc1 , can you help?
Outgoing: 36.1 µM

***
Incoming: So what does the record say about CC50 for O=C(Nc1ccc(N2CCN(C(=O)c3cccs3)CC2)cc1)c1ccc(-c2ccncc2)cc1 ?
Outgoing: > 25 µM

Incoming: Value lookup for CC50; key = O=C(Nc1ccc(N2CCN(C(=O)c3ccncc3)CC2)cc1)c1ccc(OCc2ccccc2)cc1
Outgoing: > 25 µM

Incoming: Look at this compound and give its reported CC50. O=C(Nc1ccc(N2CCN(C(=O)c3cccs3)CC2)cc1)c1ccc(OCc2cccc(Cl)c2)cc1
Outgoing: 25.5 µM

Incoming: Suppose we examine the compound O=C(Nc1ccc(N2CCN(C(=O)c3cccs3)CC2)cc1)c1ccc(Br)c2ncccc12 ; what CC50 value has been reported?
Outgoing: > 25 µM

Incoming: Please give the measured CC50 for this compound: COC(=O)Cc1ccc(NC(=O)c2ccc(NC(=O)c3ccco3)cc2)cc1
Outgoing: > 25 µM
